testDetails: Phase 1 DDI study 012: lemborexant plasma PK with/without fluconazole
Assay type: in vivo, human
setupConditions: human, plasma, AUC0‐t, Geometric LSM, lemborexant 10 mg + fluconazole 200 mg once daily, n = 14
propertyLabel: AUC (ng·h/mL)
Express the result in ng·h/mL but write the number alone.

Quick check: AUC of Cc1ncc(OC[C@@]2(c3cccc(F)c3)C[C@H]2C(=O)Nc2ccc(F)cn2)c(C)n1 ?
1330

----------
testDetails: Phase 1 DDI study 004 part B: midazolam
setupConditions: human, plasma, AUC0‐inf, Geometric LSM, midazolam 2 mg + bupropion 75 mg, without lemborexant
propertyLabel: AUC

Given the entry Cc1ncc2n1-c1ccc(Cl)cc1C(c1ccccc1F)=NC2 , report its measured AUC.
21.4 ng·h/mL
